Hello, the source for this data is PubChem BioAssay AID2642, in case you need it.

# test.target: Potassium voltage-gated channel subfamily KQT member 1 (Homo sapiens) (UniProt P51787)
# Sequence (P51787 whole entry, looked up): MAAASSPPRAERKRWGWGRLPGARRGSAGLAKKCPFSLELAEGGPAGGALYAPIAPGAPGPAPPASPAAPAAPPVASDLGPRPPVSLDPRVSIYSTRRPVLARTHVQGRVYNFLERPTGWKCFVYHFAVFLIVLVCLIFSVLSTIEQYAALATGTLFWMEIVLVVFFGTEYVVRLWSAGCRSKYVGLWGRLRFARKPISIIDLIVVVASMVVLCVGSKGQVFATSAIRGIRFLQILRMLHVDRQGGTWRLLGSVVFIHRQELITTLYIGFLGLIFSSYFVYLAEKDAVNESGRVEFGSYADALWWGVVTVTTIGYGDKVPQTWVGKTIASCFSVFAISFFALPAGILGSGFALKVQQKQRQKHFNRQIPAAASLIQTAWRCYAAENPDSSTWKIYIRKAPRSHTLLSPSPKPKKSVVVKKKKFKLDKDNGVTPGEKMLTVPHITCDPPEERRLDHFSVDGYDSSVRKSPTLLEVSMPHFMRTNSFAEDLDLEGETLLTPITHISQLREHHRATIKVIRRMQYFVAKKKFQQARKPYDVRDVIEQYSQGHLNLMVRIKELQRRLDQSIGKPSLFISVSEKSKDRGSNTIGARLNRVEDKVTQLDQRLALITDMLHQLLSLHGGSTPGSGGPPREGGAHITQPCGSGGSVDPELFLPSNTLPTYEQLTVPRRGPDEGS
# measurement.notes: inhibitors of human KCNQ1 channel, primary screen, cell-based, thallium flux, high-throughput (AID 2642);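 also: channel opened by potassium depolarization with thallium stimulus after 20 min compound exposure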
# assay.setup: CHO-K1 KCNQ1, FluxOR thallium flux fluorescence, at 10 µM; hits give high values
In all, about 310,000 compounds went through this assay and about 3,900 (1.3%) were called active. The sample as a whole holds a higher share of actives than the screen did.
value.type: B-score

Worked cases, answers included:
molecule	value.type	recorded.measurement
CCN1/C(=C\c2ccc3ccccc3[n+]2CC)Sc2cc(C)ccc21	B-score	15 (active)
COC(=O)c1nc(NC(=O)c2ccc(C(C)(C)C)cc2)n[nH]1	B-score	inactive
Cn1nc(-c2ccc(Cl)cc2)c2cc(C(=O)NCc3ccco3)sc21	B-score	6 (active)
CCOc1cc(C2C(C(=O)OC(C)C)=C(C)NC3=C2C(=O)CCC3)cc([N+](=O)[O-])c1O (stereo unspecified)	B-score	inactive
CC(C)CCNC(=O)Cn1c(=O)oc2cc(S(=O)(=O)N3CC(C)CC(C)C3)ccc21 (stereo unspecified)	B-score	inactive

B-score for O=C(Nc1ccccc1N1CCCC1)c1ccc2ccccc2c1 is inactive

# molecule CSc1nccc(NC(=O)c2ccc(C(C)(C)C)cc2)n1 ; its B-score = 7 (active)

Lab book: B-score of CC(C)/C=N/NC(=O)c1cc(Br)ccc1O noted as inactive

# B-score (molecule: Cc1cccc(NC(=O)c2cccnc2Cl)n1 ) is inactive

Value of B-score reported for the molecule Cc1ccc(C)c(N2CCN(S(=O)(=O)c3c(C)[nH]c(C)c3C(=O)N3CCCC3)CC2)c1 is inactive

So for O=C(NCCN1CCOCC1)/C(=C/c1ccc(F)cc1)NC(=O)c1ccccc1 , the logged B-score turned out to be inactive
